- System: human monocyte-derived macrophages (polarized)
- Protocol Notes: cell shape (eccentricity) Z-score vs DMSO control; higher = more elongated, M2-like morphology
- Assay Conditions: 5 µM; 24 h; macrophage state: M1-polarized (IFNg + TNFa), cytokines present during treatment
Property Label: cell shape (Z-score)

compound_structure=Cc1c(NC(=O)c2cccnc2)c(=O)n(-c2ccccc2)n1C property_label="cell shape (Z-score)" measurement=1.43
compound_structure=CNC(=O)c1cc(Oc2ccc(NC(=O)Nc3ccc(Cl)c(C(F)(F)F)c3)cc2)ccn1 property_label="cell shape (Z-score)" measurement=14
compound_structure=COc1ccc([C@H]2CNC(=O)C2)cc1OC1CCCC1 property_label="cell shape (Z-score)" measurement=-2.33

----------
- Test system: human monocyte-derived macrophages (polarized)
- Protocol Notes: cell shape (eccentricity) Z-score vs DMSO control; higher = more elongated, M2-like morphology
- Assay Conditions: 5 µM; 24 h; macrophage state: M1-polarized (IFNg + TNFa), cytokines present during treatment
Parameter: cell shape (Z-score). Scope: all listed entries.
Property Label: cell shape (Z-score)

compound="NC(=O)C1CCCc2c1[nH]c1ccc(Cl)cc21 (centres undefined)" property_label="cell shape (Z-score)" measurement=-2.04
compound=O=c1cc(-c2ccccc2F)[nH]c2cc3c(cc12)OCO3 property_label="cell shape (Z-score)" measurement=0.5
compound=CC1(C)CCC(CN2CCN(c3ccc(C(=O)NS(=O)(=O)c4ccc(NCC5CCOCC5)c([N+](=O)[O-])c4)c(Oc4cnc5[nH]ccc5c4)c3)CC2)=C(c2ccc(Cl)cc2)C1 property_label="cell shape (Z-score)" measurement=4.11
compound=O=C(CCc1ccc(O)cc1)c1c(O)cc(O)cc1O property_label="cell shape (Z-score)" measurement=-3.42
compound=N[C@@H](CC(=O)N1CCn2c(nnc2C(F)(F)F)C1)Cc1cc(F)c(F)cc1F property_label="cell shape (Z-score)" measurement=2.26
compound=COc1cc(-c2ccc(=O)[nH]n2)ccc1OC(F)F property_label="cell shape (Z-score)" measurement=-4.29
compound=C=C1CC[C@@H]2[C@](C)(CO[C@@H]3O[C@H](CO)[C@@H](O)[C@H](O)[C@H]3O)CCC[C@@]2(C)[C@@H]1CCC1=CCOC1=O property_label="cell shape (Z-score)" measurement=-4.62
compound="CC1C(=O)C(=O)[C@@H]2O[C@@H]2C1=O (some centres undefined)" property_label="cell shape (Z-score)" measurement=-0.0615
compound=Cc1c(C(=O)Nc2ccc(N3C[C@@H](C)O[C@@H](C)C3)nc2)cccc1-c1ccc(OC(F)(F)F)cc1 property_label="cell shape (Z-score)" measurement=8.76
compound=COc1cc(OC)c(/C=C/S(=O)(=O)Cc2ccc(OC)c(NCC(=O)O)c2)c(OC)c1 property_label="cell shape (Z-score)" measurement=-2.86
compound=O=c1cc(-c2cccc3c2Sc2ccccc2S3)oc(N2CCOCC2)c1 property_label="cell shape (Z-score)" measurement=-7.49
compound=COc1cc(C(=O)N2CCC(N3CCN(C)CC3)CC2)ccc1Nc1ncc2c(n1)N(C)c1ccccc1C(=O)N2C property_label="cell shape (Z-score)" measurement=-5.99
compound=CCOC(=O)N[C@@H]1CC[C@@H]2[C@@H](C1)C[C@H]1C(=O)O[C@H](C)[C@H]1[C@H]2/C=C/c1ccc(-c2cccc(F)c2)cn1 property_label="cell shape (Z-score)" measurement=5.58
compound="CC1(CCOC2OC(CO)C(O)C(O)C2O)CCC2C(=CCC3C(C)(C(=O)O)CCCC23C)C1 (centres undefined)" property_label="cell shape (Z-score)" measurement=-2.26
compound=Cc1c(-c2ccnc(Nc3ccc(N4CCNCC4)cc3)n2)sc(=O)n1C property_label="cell shape (Z-score)" measurement=7.79
compound=C=C(c1ccc(C(=O)O)cc1)c1cc2c(cc1C)C(C)(C)CCC2(C)C property_label="cell shape (Z-score)" measurement=8.49
compound=Cc1cc(Nc2nc(N[C@@H](C)c3ncc(F)cn3)ncc2Cl)[nH]n1 property_label="cell shape (Z-score)" measurement=10.1
compound=CC[C@@H]1C(=O)N(C)c2cnc(Nc3ccc(C(=O)NC4CCN(C)CC4)cc3OC)nc2N1C1CCCC1 property_label="cell shape (Z-score)" measurement=-1.93
compound=c1ccc(-c2[nH]ncc2-c2ccnc3ccccc23)nc1 property_label="cell shape (Z-score)" measurement=2.26
